The reported measurements were obtained from the DeepSol protein solubility set.

- assayOverview: soluble on expression in E. coli; label from the status in PepcDB or PDB records

| sequenceText | soluble on expression in E. coli |
| --- | --- |
| MSLEDTTITFWHAMNGVQEEALTKLTKDFMKENPKIKVELQNQSAYPDLQAKINSTLTSPKDLPTITQAYPGWLWNAAQDEMLVDLKPYMDDDTIGWKDAEPIREVLLDGAKIDGKQYGIPFNKSTEMLFYNADLLKEYGVEVPKTLEELKEASKTIYEKSNKEVVGAGFDSLNNYYAIGMKNKGVDFNKDLDLTSKDSQEVVDYYRDGIEAGYFRTAGSDKYLSGPFANKKVAMFVGSIAGAGFVQKDAEAGGYEYGVAPRPEKINLQQGTDIYMFDSATPEQRTAAFEFMKFLATPDSQLYWAQQTGYMPILESVLHSDEYKNSKTTKVPAQLENAVKDLFAIPVEENADSAYNEMRTIMESIFASSNKDTRKLLKDATSQFEQAWNQEGHHHHHH | soluble |
| MLTNCASKTLAAVRANIRAIATSSARASDNLFVHRDTPEDNPNIPFEFTAENKKRVEAILSIYPEGHKRGAMIPLLDLAQRQYGWLPISAMHKVAEILQLPNMRVYEVATFYTMFMRKPTGKYHIQVCTTTPCWLRGSDDILETCKKQLGIGVGDTTKDRKFTISEVECLGACVNAPMVAINDDYYEDLTSKDMQDILNDLKADKISPPGPRNGRFASEPKGEPTSLSEEPKGPGFGLQAGL | not soluble |
| MGSDKIHHHHHHMIEVEIDKDSGFCFGVVTAIESAERELGNTDTLYCLGDIVHNSLEVERLEHMGLHTIDHEGLSRLRDRKVLLRAHGEPPSTYALAKRNNITIIDATCPVVLRLQRKIHKCYQETRANNTQLVIYGKKGHAEVNGLVGQTEGTAIVIEKIEDLDRLDFTRAISLFSQTTKSLDGFKAVVAEIKQRMAEGVEFNYYDTICRQVANRLPNIKAFASSHDWVYFVAGRKSSNGKMLFEECRKANPNTLFISEVSEITEPLPEGVRRVGVCGATSTPKWLMEEVAVRIKELNASE | not soluble |
| MRAVVLVPFLKQQRENRDAASAPAAPGRSVEAKLEEAKGLALAIDLEVTQGLVVPVNQPRPATLFGTGKIEEIGHLLDETNSGLVIVDHPLTPVQQRNLEKQWNAKVIDRTGLILEIFGRRASTKEGTLQVDLAHLNYQKGRLVRSWTHLERQRGGAGFMGGPGETQIEADRRLLQDRIVKLEKELEQVVRTRQLHRAKRRKVPHPIVALVGYTNAGKSTLFNRITGAGVLAEDMLFATLDPTLRRMKLPHGRTVILSDTVGFISDLPTHLVAAFRATLEEVLEA | not soluble |
| MDERDALRISREIAGEVRKAIASMPLRERVKDVGMGKDGTPTKAADRVAEDAALEILRKERVTVVTEESGVLGEGDVFVALDPLDGTFNATRGIPVYSVSLCFSYSDKLKDAFFGYVYNLATGDEYYADSSGAYRNGERIEVSDAEELYCNAIIYYPDRKFPFKRMRIFGSAATELCFFADGSFDCFLDIRPGKMLRIYDAAAGVFIAEKAGGKVTELDGESLGNKKFDMQERLNIVAANEKLHPKLLELIK | soluble |
| AELRSREYAEILKQKQELSLVEAGEFNSLGKRNGRVYFVETFDTESGIMKNLFLREQDKNGGDNIIFAKEGNFSLNDNKRTLELRHGYRYSGTPGRADYNQVSFQKLNLIISTTPKLIDPVSHRRTIPTAQLIGSSNPQHQAELMWR | soluble |
| MGSDKIHHHHHHMDIRQLTYFIAVAEAKNYSRAAKSLFVTQPTLSQSIKKLEAELNTILFLQNGRQLALTEAGEILYEKGQLLMTNVNQMVTEIQQLNQEKKEGIRVGLTSLFAIQFMKQISTFMATHSNVEVSLIQDGSRKLQELLAKGKIDIGLLSFPSTRNDITIEPLQTSTKGYKVSIVMPKSHPLATLPEIELNDLRDYKVASLNEHYMLGEMLPRKCRALGFDPHIVFKHNDWEVLIHSLQDLNAVTILPSEFESISQVQDLCWVPLKDKNNFYPIGIAYRNDTSFSPMIEEFLSLLKTN | not soluble |
| MYKLDLPTLMDAFHKVFHVSMLRKCITHQENVISEPPPDLLENMMIVGMLIPNLLGVSSEMVGR | not soluble |
| MSHHFRLAKGIPHVVDATPPHSMYNSPISIHYLPKRASSADPFKRKALSKSQRELTDFVNGRNGDPHGLRLPLPIRSSLTDLVKPKLLENRNYQPPRRKTPSKDHHSKAEENSKKAKKLERINKFKDAVLTDLIENDTYSDQMIMNSIRRHMEKLAGVISWDDLEKAADELIKKIGLNTNVQNSRRSSRSRDKNQRFNKPPLPYKVERIGSAQSLESLSSPSSSSAKTSSSSSSSSFSTSSQETNSSESS | not soluble |
| MESTQKDIKLEPDEFNYIIAPGAPESENLAENPENPVDLSEIPLETKPAWFPSSKGRSIVWEHITWVAESQRAACNYCAAEFQVKGGTSALLRHLKTIHPAAINFDPENPPPVARRKRKKMEDYTIVTEDTKSYMDNLLEQFLNVDDSAPRGGLPDHDSPQHMLVVDPQSRADSEIDAVIRNLQQETEQNGLLEPEPDQALKKLLGIDDGRCEEVIAIAAPIQQDEEKQVSSSSGGAQTKKRRADEQKLTENPALNSGKFSLSILSAIRRPPLPSSTATSSSAAAPQIPAMTSSAVASATSAAAAATPMMPAKYNAQAVQILDFEAKVLYNQSLHSTIAREDAMTTYYRMKSRKLELEIKKLERELGEEQDEAQEHEE | not soluble |
| METIKISEQELINALCIYIAEKRQVGPEEVLVELMYDDDYGFSAEVEVNGRQQILIQANLIEALRLLLDREYNVNPFAARLQLELDDEEGIYALAKFNNSDD | not soluble |
| MAETDPKTVQDLTSVVQTLLQQMQDKFQTMSDQIIGRIDDMSSRIDDLEKNIADLMTQAGVEELESENKIPATQKS | not soluble |
| SLQPYEKYLKLNSQKLRADQTDTERKLWQRINRDQLLGFRFNRQKPLLSYIVDFYCAKTKLIIELDGSQHYKPDYQEKDALRDAELNSLGFTVMRFSNDEVMREIEAVVEQIYLFLENVRTD | not soluble |
